Quick reference for CC50 at 48 h among some compounds
assay: Cytotoxicity assay (CCK-8); format: cell-based; conditions: African green monkey; Vero-E6 cells, 48 h, CCK-8; read-out: CC50

compound	CC50 at 48 h
C[C@H]1O[C@@H](O[C@H]2[C@@H](O)C[C@H](O[C@H]3[C@@H](O)C[C@H](O[C@H]4CC[C@@]5(C)[C@H](CC[C@@H]6[C@@H]5C[C@@H](O)[C@]5(C)[C@@H](C7=CC(=O)OC7)CC[C@]65O)C4)O[C@@H]3C)O[C@@H]2C)C[C@H](O)[C@@H]1O [Digoxin, reference compound]	> 40 µM
CC(=O)O[C@H]1[C@H]2O[C@]23[C@@H]2CC[C@@H]4C[C@@H](O)CC[C@]4(C)[C@H]2CC[C@]3(C)[C@H]1c1ccc(=O)oc1	> 40 µM
C=C1C(=O)O[C@@H]2C[C@@]3(C)CCCC(=C)[C@@H]3C[C@H]12	> 40 µM

Which CC50 at 48 h reading was recorded for the compound COc1ccc(C(=O)O[C@H]2CC[C@@]3(C)[C@@H]4CC[C@H]5[C@]6(O)C[C@H](O)[C@@]7(O)[C@@H](CN8C[C@@H](C)CC[C@H]8[C@@]7(C)O)[C@]6(O)C[C@@]53O[C@]24O)cc1OC ?
> 100 µM

Which CC50 at 48 h reading was recorded for the compound C[C@]12CC[C@H](O)C[C@H]1CC[C@@H]1[C@@H]2CC[C@]2(C)[C@@H](c3ccc(=O)oc3)CC[C@]12O ?
> 40 µM

Which CC50 at 48 h reading was recorded for the compound C[C@H]1COC2=C1C(=O)C(=O)c1c2ccc2c1CCCC2(C)C ?
> 100 µM
